- system: Proto-oncogene tyrosine-protein kinase Src (Homo sapiens, UniProt P12931)
readout-kind: IC50 (µM)

compound	system	IC50 [µM]
O=c1c(O)c(-c2ccc(O)c(O)c2)oc2cc(O)cc(O)c12	Proto-oncogene tyrosine-protein kinase Src (Homo sapiens, UniProt P12931)	0.12

P = COCc1c(C)c(O)c(O)c(O)c1C=O
Q = COC1OC(=O)c2c(O)c(O)c(O)c(C)c21 (racemic)
R = Cc1c(O)c(O)c2c(c1C=O)[C@@H]1O[C@H](O2)c2c(C)c(O)c(O)c(O)c2C1=O (racemic)
Hey, quick one: sort these by IC50, low to high? Respond with the label ranking, as requested.
R, Q, P

====

- system: Hepatocyte growth factor receptor (Homo sapiens)
readout-kind: IC50 (nM)

Sample answers from the record:
compound	system	meas-value
O=c1c(O)c(-c2ccc(O)c(O)c2)oc2cc(O)cc(O)c12 [QUERCETIN]	Hepatocyte growth factor receptor (Homo sapiens)	580
Cc1c(O)c(O)c2c(c1C=O)[C@@H]1O[C@H](O2)c2c(C)c(O)c(O)c(O)c2C1=O (racemic)	Hepatocyte growth factor receptor (Homo sapiens)	580

P = COC1OC(=O)c2c(O)c(O)c(O)c(C)c21 (racemic)
Q = Cc1c(O)c(O)c(O)c(C=O)c1-c1cc2c(C=O)c(C)c(O)c(O)c2o1
Choose between P and Q : whose measured IC50 value is numerically larger? Choose, then provide that item's label.
P

====

IC50 data for Serine/threonine-protein kinase Nek6 (Homo sapiens) follow.
readout-kind: IC50 (µM)

smiles-input	readout-kind	meas-value
O=c1c(O)c(-c2ccc(O)c(O)c2)oc2cc(O)cc(O)c12	IC50	4.23

I = Cc1c(O)c(O)c(O)c2c1COC2=O
II = Cc1c(O)c(O)c(O)c(C=O)c1-c1cc2c(C=O)c(C)c(O)c(O)c2o1
Name the one with the greater IC50 value, either I or II as given. Answer by stating the label of the chosen item.
I
(I: 13.6 µM, II: 1.85 µM)

====

- system: Histone deacetylase 2 (Homo sapiens, UniProt Q92769)
- assay-overview: Inhibition of recombinant HDAC2 (unknown origin) using Fluor-de-Lys-SIRT1 as substrate by fluorescence assay
readout-kind: IC50 (µM)

compound	IC50, µM
Cc1c(O)c(O)c2c(c1C=O)[C@@H]1O[C@H](O2)c2c(C)c(O)c(O)c(O)c2C1=O (racemic)	10
Cc1c(O)c(O)c(O)c(C=O)c1-c1cc2c(C=O)c(C)c(O)c(O)c2o1	9.1

====

pIC50: −log10 of the molar value.
Lab note: pIC50 readings collected with ALK tyrosine kinase receptor (Homo sapiens) for the following molecules.
readout-kind: pIC50

Recorded pIC50, per entry:
molecule	readout-kind	meas-value
Cc1c(O)c(O)c2c(c1C=O)[C@@H]1O[C@H](O2)c2c(C)c(O)c(O)c(O)c2C1=O (racemic)	pIC50	6.74
COC1OC(=O)c2c(O)c(O)c(O)c(C)c21 (racemic)	pIC50	5.01
O=c1c(O)c(-c2ccc(O)c(O)c2)oc2cc(O)cc(O)c12 [QUERCETIN]	pIC50	5.48

a = COCc1c(C)c(O)c(O)c(O)c1C=O
b = Cc1c(O)c(O)c(O)c(C=O)c1-c1cc2c(C=O)c(C)c(O)c(O)c2o1
Of the two listed items, a and b , which carries the larger pIC50 figure? Kindly give the label for the entry you pick.
b

====

- system: Polyamine deacetylase HDAC10 (Homo sapiens)
- assay-overview: Inhibition of recombinant HDAC10 (unknown origin) using Fluor-de-Lys-SIRT1 as substrate by fluorescence assay
readout-kind: IC50 (µM)

compound	readout-kind	meas-value
Cc1c(O)c(O)c(O)c(C=O)c1-c1cc2c(C=O)c(C)c(O)c(O)c2o1	IC50	8.1
Cc1c(O)c(O)c2c(c1C=O)[C@@H]1O[C@H](O2)c2c(C)c(O)c(O)c(O)c2C1=O (racemic)	IC50	8.4

====

- system: Serine/threonine-protein kinase Nek2 (Homo sapiens)
- Sequence (P51955 whole entry): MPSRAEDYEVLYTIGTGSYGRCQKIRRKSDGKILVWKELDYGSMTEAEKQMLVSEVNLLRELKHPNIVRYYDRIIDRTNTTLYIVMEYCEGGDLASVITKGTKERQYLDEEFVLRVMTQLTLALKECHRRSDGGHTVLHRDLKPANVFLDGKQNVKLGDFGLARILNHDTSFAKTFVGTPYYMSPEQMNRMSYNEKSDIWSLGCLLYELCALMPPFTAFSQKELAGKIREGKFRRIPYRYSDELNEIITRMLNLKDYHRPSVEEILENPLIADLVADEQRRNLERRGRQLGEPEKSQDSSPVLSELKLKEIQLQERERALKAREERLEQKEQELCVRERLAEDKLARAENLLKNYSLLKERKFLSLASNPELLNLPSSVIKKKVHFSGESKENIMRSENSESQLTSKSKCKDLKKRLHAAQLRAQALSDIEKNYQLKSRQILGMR
readout-kind: IC50 (µM)

compound	system	IC50, µM
O=c1c(O)c(-c2ccc(O)c(O)c2)oc2cc(O)cc(O)c12 [QUERCETIN]	Serine/threonine-protein kinase Nek2 (Homo sapiens)	5.73

I = Cc1c(O)c(O)c(O)c2c1COC2=O
II = Cc1c(O)c(O)c2c(c1C=O)[C@@H]1O[C@H](O2)c2c(C)c(O)c(O)c(O)c2C1=O (racemic)
Please indicate which has the smaller reported IC50: I , or II . Could you answer with the label of the item you picked?
II
(II: 1.83 µM, I: 6.55 µM)

====

- system: Histone deacetylase 1 (Homo sapiens)
- assay-overview: Inhibition of recombinant HDAC1 (unknown origin) using Fluor-de-Lys-SIRT1 as substrate by fluorescence assay
pIC50: −log10 of the molar value.
readout-kind: pIC50

compound	system	readout-kind	meas-value
Cc1c(O)c(O)c(O)c(C=O)c1-c1cc2c(C=O)c(C)c(O)c(O)c2o1	Histone deacetylase 1 (Homo sapiens)	pIC50	5.06
Cc1c(O)c(O)c2c(c1C=O)[C@@H]1O[C@H](O2)c2c(C)c(O)c(O)c(O)c2C1=O (racemic)	Histone deacetylase 1 (Homo sapiens)	pIC50	5.07

====

Test system Serine/threonine-protein kinase PLK1 (Homo sapiens, UniProt P53350), IC50 listed for each of the compounds.
readout-kind: IC50 (µM)

1 = Cc1c(O)c(O)c(O)c(C=O)c1-c1cc2c(C=O)c(C)c(O)c(O)c2o1
2 = Cc1c(O)c(O)c(O)c2c1COC2=O
3 = Cc1c(O)c(O)c2c(c1C=O)[C@@H]1O[C@H](O2)c2c(C)c(O)c(O)c(O)c2C1=O (racemic)
Quick one: which order do the items above go in by IC50, smallest to largest? When ranking, write the labels in the order the request describes.
3, 1, 2
(3: 3.18 µM, 1: 6.31 µM, 2: 11.8 µM)

====

- system: Histone deacetylase 3 (Homo sapiens, UniProt O15379)
- assay-overview: Inhibition of recombinant HDAC3 (unknown origin) using Fluor-de-Lys-SIRT1 as substrate by fluorescence assay
pIC50: −log10 of the molar value.
readout-kind: pIC50

1 = Cc1c(O)c(O)c2c(c1C=O)[C@@H]1O[C@H](O2)c2c(C)c(O)c(O)c(O)c2C1=O (racemic)
2 = Cc1c(O)c(O)c(O)c(C=O)c1-c1cc2c(C=O)c(C)c(O)c(O)c2o1
Compare pIC50: is it lower for 1 or for 2 ? In your reply, give the label of the chosen option.
1

====

For reference, IC50 measured on Serine/threonine-protein kinase pim-1 (Homo sapiens, UniProt P11309):
readout-kind: IC50 (µM)

A = Cc1c(O)c(O)c(O)c(C=O)c1-c1cc2c(C=O)c(C)c(O)c(O)c2o1
B = Cc1c(O)c(O)c(O)c2c1COC2=O
Would you mind telling me which has the lower recorded IC50 between A and B ? Choose, then provide that item's label.
A

====

- system: Dual specificity mitogen-activated protein kinase kinase 1 (Homo sapiens)
- assay-overview: Inhibition of wild type MEK1 (unknown origin)
pIC50: −log10 of the molar value.
readout-kind: pIC50

compound	system	pIC50
Cc1c(O)c(O)c(O)c2c1COC2=O	Dual specificity mitogen-activated protein kinase kinase 1 (Homo sapiens)	< 4.00
COC1OC(=O)c2c(O)c(O)c(O)c(C)c21 (racemic)	Dual specificity mitogen-activated protein kinase kinase 1 (Homo sapiens)	< 4.52
Cc1c(O)c(O)c2c(c1C=O)[C@@H]1O[C@H](O2)c2c(C)c(O)c(O)c(O)c2C1=O (racemic)	Dual specificity mitogen-activated protein kinase kinase 1 (Homo sapiens)	< 4.52

Sure, the documented pIC50 for O=c1c(O)c(-c2ccc(O)c(O)c2)oc2cc(O)cc(O)c12 [QUERCETIN] is < 5.00

Item: `Cc1c(O)c(O)c(O)c(C=O)c1-c1cc2c(C=O)c(C)c(O)c(O)c2o1` | pIC50: < 4.52

Measured pIC50 of `COCc1c(C)c(O)c(O)c(O)c1C=O` : < 4.52
